tested on: adenosine uptake into HeLa cells; experiment: [3H]Adenosine uptake assay in HeLa cells; assay type: cell-based; conditions: Homo sapiens, HeLa, [3H]adenosine accumulation in HeLa cells; compound range 10 μM to 0.032 nM; read-out: ADU inhibition IC50
REPORTED_PROPERTY: IC50 (nM)

# input Entry C[C@](O)(c1ccc(-c2nc([C@@H]3CC[C@H]4CCC(=O)N4C3)n3c(Cl)cnc(N)c23)cc1)c1cccc(C(F)(F)F)c1 has what IC50?
# output 553

[1] Nc1nccn2c([C@@H]3CC[C@H]4CCC(=O)N4C3)nc(-c3ccc(C(O)(c4cccc(C(F)(F)F)c4)C(F)(F)F)cc3)c12 (stereo partly shown)
[2] COc1cc([C@@](C)(O)c2cccc(C(F)(F)F)c2)ccc1-c1nc([C@@H]2CC[C@H]3CCC(=O)N3C2)n2ccnc(N)c12
[3] C[C@](O)(c1ccc(-c2nc([C@@H]3CC[C@H]4CCC(=O)N4C3)n3ccnc(N)c23)cc1)c1cccc(-c2ccccc2)c1
[4] C[C@@](O)(c1cccc(C(F)(F)F)c1)c1ccc(-c2nc([C@@H]3CC[C@H]4CCC(=O)N4C3)n3ccnc(N)c23)c(CO)c1
# input Your job: order these 4 records by IC50, ascending. Answer format: list of labels, ordered as asked.
# output 3, 1, 2, 4

[1] C[C@@](O)(c1cccc(C(F)(F)F)c1)c1ccc(-c2nc([C@@H]3CC[C@H]4CCC(=O)N4C3)n3ccnc(N)c23)c(F)c1
[2] C[C@@](O)(c1ccc(-c2nc([C@@H]3CC[C@H]4CCC(=O)N4C3)n3ccnc(N)c23)cc1)c1cccc(-n2ccnc2)c1
# input Pick one: 1 or 2 . Which has the bigger IC50 number? # answer = label of selected item
# output 2

[I] C[C@](O)(c1ccc(-c2nc([C@@H]3CC[C@H]4CCC(=O)N4C3)n3ccnc(N)c23)cc1)c1cccc(C#N)c1
[II] CC(O)(c1cccc(C(F)(F)F)c1)c1ccc(-c2nc([C@@H]3CC[C@H]4CCC(=O)N4C3)n3ccnc(N)c23)c(Cl)c1 (stereo partly shown)
# input Would you let me know which has the greater IC50 value, I or II ? Mark your selection by writing its label.
# output I
(I: 2380 nM, II: 311 nM)

###

biological target: BTK enzyme (recombinant full-length BTK, hBTK) (Homo sapiens (Human), UniProt Q06187); experiment: BTK enzymatic activity LANCE TR-FRET assay; conditions: 50 pM hBTK, 25 μM ATP, 2 μM biotin-A5-peptide; compound range 1 μM to 0.017 nM; read-out: BTK binding IC50
Sequence (Q06187 whole entry): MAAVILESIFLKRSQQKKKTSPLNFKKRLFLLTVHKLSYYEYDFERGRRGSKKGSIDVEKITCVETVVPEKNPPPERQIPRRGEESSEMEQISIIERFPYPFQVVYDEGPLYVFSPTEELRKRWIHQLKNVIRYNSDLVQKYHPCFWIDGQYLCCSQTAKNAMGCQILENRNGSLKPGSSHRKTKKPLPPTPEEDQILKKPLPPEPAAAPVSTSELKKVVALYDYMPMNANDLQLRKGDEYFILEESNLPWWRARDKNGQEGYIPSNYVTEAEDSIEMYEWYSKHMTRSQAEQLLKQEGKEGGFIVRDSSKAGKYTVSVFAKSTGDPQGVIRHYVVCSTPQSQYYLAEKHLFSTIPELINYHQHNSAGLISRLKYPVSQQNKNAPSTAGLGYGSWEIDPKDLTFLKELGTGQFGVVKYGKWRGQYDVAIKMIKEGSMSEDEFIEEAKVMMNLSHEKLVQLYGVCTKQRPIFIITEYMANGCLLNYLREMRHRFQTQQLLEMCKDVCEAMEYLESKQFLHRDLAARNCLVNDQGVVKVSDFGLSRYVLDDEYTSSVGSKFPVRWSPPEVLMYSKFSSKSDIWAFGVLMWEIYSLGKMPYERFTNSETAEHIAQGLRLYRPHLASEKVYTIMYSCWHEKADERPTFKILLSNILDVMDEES
REPORTED_PROPERTY: IC50 (nM)

# input Query (molecule): C[C@@](O)(c1ccccc1)c1ccc(-c2nc([C@@H]3CC[C@H]4CCC(=O)N4C3)n3ccnc(N)c23)cc1 ; field requested: IC50
# output 1.6

[1] CC(O)(c1cccc(C(F)(F)F)c1)c1ccc(-c2nc([C@@H]3CC[C@H]4CCC(=O)N4C3)n3ccnc(N)c23)c(C(F)(F)F)c1 (stereo partly drawn)
[2] CCOc1cc([C@@](C)(O)c2cccc(C(F)(F)F)c2)cc(F)c1-c1nc([C@@H]2CC[C@H]3CCC(=O)N3C2)n2ccnc(N)c12
[3] C[C@](O)(c1ccc(-c2nc([C@@H]3CC[C@H]4CCC(=O)N4C3)n3c(Cl)cnc(N)c23)cc1)c1cccc(C2CC2)c1
[4] CC(C)N1CC(=O)N2C[C@H](c3nc(-c4ccc([C@@](C)(O)c5cccc(C(F)(F)F)c5)cc4)c4c(N)nccn34)CC[C@H]2C1
[5] COc1cc(-c2nc([C@@H]3CC[C@H]4CCC(=O)N4C3)n3ccnc(N)c23)ccc1C(C)(O)c1cccc(C(F)(F)F)c1 (stereo partly drawn) [Example 64]
# input Put the items in sequence by IC50, from largest down. Answer by listing the labels in the order asked for.
# output 1, 2, 5, 4, 3
